# test_target: Ubiquitin carboxyl-terminal hydrolase 19 (Homo sapiens, UniProt O94966)
# Sequence (O94966 whole entry): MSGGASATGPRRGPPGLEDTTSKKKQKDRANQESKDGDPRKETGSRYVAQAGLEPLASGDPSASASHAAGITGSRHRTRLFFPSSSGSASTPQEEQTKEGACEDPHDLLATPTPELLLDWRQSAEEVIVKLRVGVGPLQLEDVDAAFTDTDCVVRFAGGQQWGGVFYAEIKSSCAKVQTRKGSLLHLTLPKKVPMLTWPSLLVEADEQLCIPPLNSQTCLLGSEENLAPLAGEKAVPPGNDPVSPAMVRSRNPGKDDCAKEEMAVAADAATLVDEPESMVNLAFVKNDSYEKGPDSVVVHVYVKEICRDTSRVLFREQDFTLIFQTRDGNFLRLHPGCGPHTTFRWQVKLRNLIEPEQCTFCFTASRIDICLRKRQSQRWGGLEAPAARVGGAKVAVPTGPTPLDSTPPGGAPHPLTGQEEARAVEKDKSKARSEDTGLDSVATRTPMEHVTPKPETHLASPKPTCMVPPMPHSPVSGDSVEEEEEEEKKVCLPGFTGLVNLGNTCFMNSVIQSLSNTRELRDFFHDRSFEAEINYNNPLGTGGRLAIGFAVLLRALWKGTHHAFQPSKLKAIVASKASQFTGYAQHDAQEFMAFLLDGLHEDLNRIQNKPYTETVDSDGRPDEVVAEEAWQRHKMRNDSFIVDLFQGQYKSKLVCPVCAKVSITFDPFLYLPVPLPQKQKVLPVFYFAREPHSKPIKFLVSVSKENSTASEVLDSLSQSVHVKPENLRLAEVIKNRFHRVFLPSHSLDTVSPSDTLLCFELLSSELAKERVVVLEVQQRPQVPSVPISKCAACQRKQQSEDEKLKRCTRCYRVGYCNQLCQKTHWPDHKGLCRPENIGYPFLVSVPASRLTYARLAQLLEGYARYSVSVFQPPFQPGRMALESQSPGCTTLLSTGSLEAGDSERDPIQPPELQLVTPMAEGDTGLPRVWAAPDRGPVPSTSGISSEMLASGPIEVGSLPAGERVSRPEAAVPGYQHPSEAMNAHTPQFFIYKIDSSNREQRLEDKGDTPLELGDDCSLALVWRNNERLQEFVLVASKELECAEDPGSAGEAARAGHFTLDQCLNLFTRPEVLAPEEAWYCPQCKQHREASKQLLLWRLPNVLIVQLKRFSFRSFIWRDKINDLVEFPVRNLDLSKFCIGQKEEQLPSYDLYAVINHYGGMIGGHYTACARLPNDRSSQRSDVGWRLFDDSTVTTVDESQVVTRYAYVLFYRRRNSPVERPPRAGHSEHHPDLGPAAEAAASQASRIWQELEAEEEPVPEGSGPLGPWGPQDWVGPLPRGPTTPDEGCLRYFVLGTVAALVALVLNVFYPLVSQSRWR
# method: Fluorescence Polarization (FP) Homogeneous Assay
assay_readout: IC50

Illustrative cases are given below, each with its answer.
CN(C)c1cc(=O)n(C[C@]2(O)CCN(C(=O)N3CCNC[C@H]3c3ccccc3)CC23CCCC3)cn1 [US11807646, Example 318] :: < 500 nM
CS(C)(=O)=Nc1cn(CC2(O)CCN(C(=O)N3CCNC[C@H]3c3ccccc3)CC23CCCC3)c(=O)cc1-c1ccccc1 (stereo partly drawn) [US11807646, Example 191] :: < 500 nM

We now examine a further molecule.
Query block: Please look up its IC50: O=C(N1CC[C@@](O)(Cn2cnc(-c3ccccc3)cc2=O)C2(CCCC2)C1)N1CC[S+]([O-])CC1c1ccccc1 (stereo partly drawn) [US11807646, Example 337]
Result block: < 500 nM
